# Measurement Target: NDM-1 (Klebsiella pneumoniae)
# Sequence (C7C422 29-270, looked up, species assumed): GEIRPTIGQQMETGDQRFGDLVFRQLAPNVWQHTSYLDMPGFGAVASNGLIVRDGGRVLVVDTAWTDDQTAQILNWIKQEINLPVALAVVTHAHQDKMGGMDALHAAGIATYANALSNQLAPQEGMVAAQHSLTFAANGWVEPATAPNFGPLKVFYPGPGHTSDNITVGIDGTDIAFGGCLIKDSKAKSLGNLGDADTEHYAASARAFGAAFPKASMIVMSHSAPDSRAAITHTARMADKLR
# Assay Info: MBL inhibition, FC-5 fluorescence assay, NDM-1
# Assay type: biochemical
# Condition Parameters: FC-5 cephalosporin substrate, fluorescence; ranges of obtained pIC50; read-out: pIC50 NDM-1 (converted)
Property Name: IC50

Answered examples (3):
Molecule: CC(Oc1ccc(CN)cc1)c1cccc2c(-c3ccc(CS(C)(=O)=O)c(F)c3)c(C(=O)O)[nH]c12 (stereo not shown) [IC-92]
IC50: 1 to 10 nM
//
Molecule: C[C@H](NC(=O)c1ccc(CN)cc1)c1cccc2c(-c3ccc(CN4CCOCC4)nc3)c(C(=O)O)[nH]c12 [IC-59]
IC50: < 0.1 nM
//
Molecule: C[C@@H](c1cccc2c(-c3ccc4c(c3)CNC4=O)c(C(=O)O)[nH]c12)N1C[C@]2(C[C@@H](CN)C2)OC1=O [IC-22]
IC50: 0.1 to 1 nM

Reported IC50 ( CC(c1cccc2c(-c3ccc(CS(C)(=O)=O)c(F)c3)c(C(=O)O)[nH]c12)n1cc(CN2CC[C@H](N)C2)oc1=O (stereo partly shown) [IC-81] ) = 0.1 to 1 nM

###

# Measurement Target: VIM-2 (Escherichia coli, UniProt Q5U7L7)
# Assay Info: MBL inhibition, FC-5 fluorescence assay, VIM-2
# Assay type: biochemical
# Condition Parameters: FC-5 cephalosporin substrate, ranges of obtained pIC50, read-out: pIC50 VIM-2 (converted)
Property Name: IC50

Compound: C[C@@H](c1cccc2c(-c3ccn(C)c(=O)c3)c(C(=O)O)[nH]c12)N1C[C@]2(C[C@@H](CN)C2)OC1=O
Property Name: IC50
Observed Value: 0.1 to 1 nM

Reported IC50 ( C[C@@H](c1cccc2c(-c3ccc4c(c3)CC(=O)N4)c(C(=O)O)[nH]c12)N1C[C@]2(C[C@@H](CN)C2)OC1=O ) = 1 to 10 nM

Reported IC50 ( C[C@@H](c1cccc2c(-c3ccc(CS(C)(=O)=O)c(F)c3)c(-c3nnn[nH]3)[nH]c12)N1C[C@]2(C[C@@H](CN)C2)OC1=O ) = > 10 nM

Reported IC50 ( CC(OCC1CCNCC1)c1cccc2c(-c3ccc(CS(C)(=O)=O)c(F)c3)c(C(=O)O)[nH]c12 (stereo not drawn) ) = 1 to 10 nM

###

# Assay Info: Plasma protein binding, equilibrium dialysis, human plasma
# Assay type: in vitro ADME
# Condition Parameters: pH 7.4, equilibrium dialysis (RED) 4 hours at 37° C., read-out: Plasma protein binding, fu, Human
# Procedure: The fraction of unbound compound (fu) in plasma from human or other animal species was determined by equilibrium dialysis at 37° C. for 4 hours using the Rapid Equilibrium Dialysis (RED) device (ThermoFisher Scientific). […] After dialysis, compound concentrations in buffer and plasma were quantified by LC-MS/MS. In parallel the stability of the compound in plasma was determined by incubating drug-spiked plasma (10 μM) at 37° C. for 4 hours, meanwhile the control plasma sample was kept in the freezer. […]
Property Name: fraction unbound at 4 h, 10 μM

Compound: CC(OCc1ccc(CN)cc1)c1cccc2c(-c3ccc(NS(C)(=O)=O)c(C#N)c3)c(C(=O)O)[nH]c12 (stereo not drawn) [IC-86]
fraction unbound at 4 h, 10 μM: 0.005 to 0.05

Compound: CC(c1cccc2c(-c3ccc(CS(C)(=O)=O)c(F)c3)c(C(=O)O)[nH]c12)n1cc(CNS(N)(=O)=O)nn1 (stereo not drawn) [IC-8]
fraction unbound at 4 h, 10 μM: 0.05 to 0.25

Compound: CC(c1cccc2c(-c3ccc(CS(C)(=O)=O)c(F)c3)c(C(=O)O)[nH]c12)N(C)C(=O)c1ccc(CN)cc1 (stereo not drawn) [IC-97]
fraction unbound at 4 h, 10 μM: 0.05 to 0.25

Compound: C[C@@H](c1cccc2c(-c3cn[nH]c(=O)c3)c(C(=O)O)[nH]c12)N1C[C@]2(C[C@@H](CN)C2)OC1=O [IC-33]
fraction unbound at 4 h, 10 μM: 0.05 to 0.25

Compound: CC(c1noc(CCCN)n1)c1cccc2c(-c3ccc(CS(C)(=O)=O)c(F)c3)c(C(=O)O)[nH]c12 (stereo not drawn) [IC-62]
fraction unbound at 4 h, 10 μM: 0.05 to 0.25

Then there is this compound:
Reported fraction unbound at 4 h, 10 μM ( COc1ncc(-c2c(C(=O)O)[nH]c3c([C@H](C)N4C[C@]5(C[C@@H](CN)C5)OC4=O)cccc23)cc1O [IC-27] ) = 0.05 to 0.25

###

# Measurement Target: VIM-1 (Pseudomonas aeruginosa, UniProt A0A0F7KYQ8)
# Assay Info: MBL inhibition, FC-5 fluorescence assay, VIM-1
# Assay type: biochemical
# Condition Parameters: FC-5 cephalosporin substrate, ranges of obtained pIC50, read-out: pIC50 VIM-1 (converted)
Counter-ions that a name gives are not always drawn.
Listed here: items and their measured IC50.

Reported IC50 ( CC(c1cccc2c(-c3ccc(CS(C)(=O)=O)c(F)c3)c(C(=O)O)[nH]c12)n1cc(CCC2(N)CC2)oc1=O (stereo not shown) [IC-74] ) = 0.1 to 1 nM

Reported IC50 ( CC(c1cccc2c(-c3ccc(CS(C)(=O)=O)c(F)c3)c(C(=O)O)[nH]c12)n1cc(CCCNC(=N)N)oc1=O (stereo not shown) [IC-73, hydrochloride] ) = 1 to 10 nM

Reported IC50 ( C[C@@H](c1cccc2c(-c3ccc(CS(C)(=O)=O)c(F)c3)c(-c3nnn[nH]3)[nH]c12)N1C[C@]2(C[C@@H](CN)C2)OC1=O [IC-107] ) = 1 to 10 nM

Reported IC50 ( COc1cc(-c2c(C(=O)O)[nH]c3c([C@H](C)N4C[C@]5(C[C@@H](CN)C5)OC4=O)cccc23)ccn1 [IC-17] ) = 1 to 10 nM

Reported IC50 ( C[C@@H](c1cccc2c(-c3ccc(CN4CCOCC4)nc3)c(C(=O)O)[nH]c12)n1cc(CN2CC(N)C2)oc1=O [IC-52] ) = > 10 nM

Reported IC50 ( C[C@@H](c1cccc2c(-c3c(F)cc(NS(C)(=O)=O)cc3F)c(C(=O)O)[nH]c12)n1cc(CN2CC(N)C2)oc1=O [IC-51] ) = > 10 nM

###

Listed here: items and their measured half-life at 1 μM.
# Assay Info: Metabolic stability in mouse hepatocytes
# Assay type: in vitro ADME
# Condition Parameters: cryopreserved mouse hepatocytes, 1 μM compound, 37° C., up to 90 min, read-out: Metabolic stability in hepatocytes, in vitro t1/2, Mouse

Answered examples (5):
Compound: C[C@@H](c1cccc2c(-c3ccnc(O)c3)c(C(=O)O)[nH]c12)N1C[C@]2(C[C@@H](CN)C2)OC1=O [IC-18]
half-life at 1 μM: > 6.67 h

Compound: CC(C)c1cccc2c(-c3cc(Cl)cc(Cl)c3)c(C(=O)O)[nH]c12 [Prior Art Compound 76, reference compound]
half-life at 1 μM: < 2.5 h

Compound: CC(c1cccc2c(-c3ccc(CS(C)(=O)=O)c(F)c3)c(C(=O)O)[nH]c12)n1cc(CN)oc1=O (stereo not shown) [IC-79]
half-life at 1 μM: < 2.5 h

Compound: COc1cc(-c2c(C(=O)O)[nH]c3c([C@H](C)N4C[C@]5(C[C@@H](CN)C5)OC4=O)cccc23)ccn1 [IC-17]
half-life at 1 μM: 2.5 to 6.67 h

Compound: CC(c1cccc2c(-c3ccc(CS(C)(=O)=O)c(F)c3)c(C(=O)O)[nH]c12)n1cc(CNC(=O)CN)oc1=O (stereo not shown) [IC-80]
half-life at 1 μM: < 2.5 h

Reported half-life at 1 μM ( CC(NC(=O)[C@H]1CC[C@H](CN)CC1)c1cccc2c(-c3ccc(CS(C)(=O)=O)c(F)c3)c(C(=O)O)[nH]c12 (mixture of isomers) [IC-99] ) = > 6.67 h

Reported half-life at 1 μM ( CC(c1noc(CCCN)n1)c1cccc2c(-c3ccc(CS(C)(=O)=O)c(F)c3)c(C(=O)O)[nH]c12 (stereo not shown) [IC-62] ) = 2.5 to 6.67 h

Reported half-life at 1 μM ( CC(OCc1ccc(CN)cc1)c1cccc2c(-c3ccc(NS(C)(=O)=O)c(C#N)c3)c(C(=O)O)[nH]c12 (stereo not shown) [IC-86] ) = < 2.5 h

Reported half-life at 1 μM ( CC(NC(=O)c1ccc(CN)cc1)c1cccc2c(-c3ccc(CN4CCOCC4)nc3)c(C(=O)O)[nH]c12 (stereo not shown) [IC-11] ) = > 6.67 h

Reported half-life at 1 μM ( C[C@@H](c1cccc2c(-c3ccc(NS(C)(=O)=O)c(C#N)c3)c(C(=O)O)[nH]c12)n1cc(CN2CC(N)C2)oc1=O [IC-55] ) = 2.5 to 6.67 h

###

# Measurement Target: VIM-2 (Escherichia coli)
# Assay Info: MBL inhibition, FC-5 fluorescence assay, VIM-2
# Type: biochemical
# Condition Parameters: FC-5 cephalosporin substrate, ranges of obtained pIC50, read-out: pIC50 VIM-2 (converted)
# Description: Inhibitors were tested using a panel of the clinically relevant B1 MBLs (NDM-1, VIM-1, -2 and IMP-1). […] FC-5 assays were conducted in clear bottomed 384 black well microplates (Greiner); the initial rate of reaction was assessed by monitoring the fluorescence intensity (λex=380 nm and λem=460 nm) using a Pherstar FS (BMG LabTech) plate reader. Initial rates of reaction were determined and dose-response analyses conducted in GraphPad Prism. […]
Listed here: items and their measured IC50.

Compound: C[C@@H](c1cccc2c(-c3ccc(N)nc3)c(C(=O)O)[nH]c12)N1C[C@]2(C[C@@H](CN)C2)OC1=O [IC-37]
Observed Value: 1 to 10 nM

Then there is this compound:
Reported IC50 ( C[C@@H](c1cccc2c(-c3ccc(CN4CCOCC4)nc3)c(C(=O)O)[nH]c12)n1cc(CN2CC(N)C2)oc1=O [IC-52] ) = 1 to 10 nM
